Measured melting point, listed per entry for reference.
Entry rule: numbers only, all in °C.

Examples from the recorded data:
compound: CC(=O)C1(O)CCC2C3CCC4CC(O)CCC4(C)C3CCC21C (configuration not stated)
melting point / °C: 265

compound: CCOC(=O)c1c(C)cc(O)nc1O
melting point / °C: 219

compound: CC(C)C(C)CCC(C)C1CCC2C3CC=C4CC(O)CCC4(C)C3CCC12C (configuration not stated)
melting point / °C: 158

compound: COc1ccc2c(c1)CCC1C2CCC2(C)C(O)C(O)CC12 (configuration not stated)
melting point / °C: 159

Now, please, on to the next compound.
Lookup: Query melting point for `FC(Cl)(Cl)C(Cl)(Cl)Cl`
Found: 101

* * *

Measured melting point, listed per entry for reference.
Entry rule: numbers only, all in °C.

Examples from the recorded data:
compound: COc1cccc(C=Cc2cc(C=Cc3cccc(OC)c3O)c([N+](=O)[O-])cc2[N+](=O)[O-])c1O
value-reported: 254
//
compound: Cc1ccc(NC(=O)C(C(F)(F)F)C(F)(F)F)c(C)c1
value-reported: 193
//
compound: O=C(O)C=Cc1ccco1
value-reported: 143
//
compound: C=CCSc1nnc(-c2cc(Br)cc(Br)c2O)n1N
value-reported: 162
//
compound: CCC1(CC2(c3cccc(Cl)c3)CO2)C(=O)c2ccccc2C1=O (centres undefined)
value-reported: 61
//
compound: CCC1CCC(C)CC1 (centres undefined)
value-reported: -80.8
//
compound: CCC1CN2CCC3(C(=O)Nc4ccccc43)C2CC1C(=COC)C(=O)OC (centres undefined)
value-reported: 216
//
compound: Oc1cc(Cl)c(Cl)c(Cl)c1Cl
value-reported: 116
//
compound: N#Cc1c(-c2ccccc2)c2c(O)[nH]n(-c3ccccc3)c-2nc1=S
value-reported: 142
//
compound: O=C(C1=NOC2C(=O)N(c3cccc4ccccc34)C(=O)C12)c1cccs1 (centres undefined)
value-reported: 80

Lookup: Query melting point for `Cc1nc(C)c(C)nc1C`
Found: 85

Lookup: Query melting point for `CNC(=O)c1cccnc1`
Found: 104

Lookup: Query melting point for `Cc1cc(C(F)(F)F)n2nc(N)c(/N=N/c3c(Cl)cc(Cl)cc3Cl)c2n1`
Found: 189

Lookup: Query melting point for `c1ccc(C2(N3CCCCC3)CCCCC2)cc1`
Found: 46.5

Lookup: Query melting point for `Cn1c(=O)c(C2=NNC(=O)C2=CNc2nccs2)c(O)c2ccccc21`
Found: 248

Lookup: Query melting point for CCOC(=O)C=C1SC(N2CCCCC2)C(=O)N1CC (centres undefined)
Found: 86

Lookup: Query melting point for `c1ccc(C2=NN(c3ccccc3)CN2c2ccccc2)cc1`
Found: 150

Lookup: Query melting point for `CC(C)(C)OC(=O)n1cccc1C=O`
Found: 51

Lookup: Query melting point for `O=S1(=O)OCCO1`
Found: 99

* * *

Measured melting point, listed per entry for reference.
Entry rule: numbers only, all in °C.

Examples from the recorded data:
compound: CCN(CC)C(=O)c1ccc(O)c(OC)c1
output-unit: °C
melting point: 95
--
compound: C[C@]12CC[C@@H](O)[C@H](O)[C@@H]1CC[C@@H]1[C@@H]2CC[C@]2(C)C(=O)CC[C@@H]12
output-unit: °C
melting point: 233
--
compound: CC1(C)C=Cc2c(ccc3c2OC2c4ccc(O)cc4OCC32)O1 (stereo unspecified)
output-unit: °C
melting point: 178
--
compound: CN(C)C1=NC(=O)C(c2ccccc2)O1 (stereo unspecified)
output-unit: °C
melting point: 133
--
compound: O=C1C=CC(=O)N1c1ccc(N2C(=O)C=CC2=O)cc1
output-unit: °C
melting point: 300
--
compound: O=C1CN2CCOC2(c2ccccc2Cl)c2cc(Cl)ccc2N1 (stereo unspecified)
output-unit: °C
melting point: 203
--
compound: N#CCSc1ccc(Cl)cc1
output-unit: °C
melting point: 80
--
compound: Nc1ccc(S(=O)(=O)Nc2cnccn2)cc1
output-unit: °C
melting point: 251

Lookup: Query melting point for `C=CC(=O)OCCOCC`
Found: -47

Lookup: Query melting point for CC(C)(C(=O)O)C(CC(=O)O)c1ccccc1 (stereo unspecified)
Found: 171

Lookup: Query melting point for `CC(C)(C)N(NC(=O)c1ccccc1)C(=O)c1cccc(F)c1`
Found: 176

Lookup: Query melting point for `CCOc1ccccc1NC(C)=O`
Found: 79

* * *

measure: melting point (°C)
Entry rule: numbers only, all in °C.

Examples from the recorded data:
molecule: CN(C)C(=O)CCC(=O)O
melting point [°C]: 84.5
--
molecule: O=[N+]([O-])c1ccc(Br)s1
melting point [°C]: 44
--
molecule: CCCCCCC(O)CC (stereo not drawn)
melting point [°C]: 22
--
molecule: O=c1c(I)cn(CC(O)CO)cc1I (stereo not drawn)
melting point [°C]: 161
--
molecule: CC(C)(C)NCCO
melting point [°C]: 44

Now, please, on to the next molecule.
Lookup: Query melting point for `O=[N+]([O-])c1ccnc(Cl)c1`
Found: 52

* * *

Measured melting point, listed per entry for reference.

molecule-smiles: COc1cc(OC(F)(F)F)ccc1C#N
measure: melting point
value-reported: 35 °C
//
molecule-smiles: O=C(O)CSc1ccnc2cc(Cl)ccc12
measure: melting point
value-reported: 223 to 225 °C
//
molecule-smiles: FC(F)(F)C(F)(F)C(F)(F)F
measure: melting point
value-reported: -148 °C
//
molecule-smiles: Cc1cc(C)c2ccccc2c1C
measure: melting point
value-reported: 55.5 °C
//
molecule-smiles: O=C(O)c1ccc(F)cc1[N+](=O)[O-]
measure: melting point
value-reported: 149 °C
//
molecule-smiles: S=c1sc2ccccc2n1CCl
measure: melting point
value-reported: 126 to 131 °C

Lookup: Query melting point for `Cc1ccc(S(=O)(=O)NCCCC[C@H](N)C(=O)O)cc1`
Found: 231 to 234 °C

* * *

Measured melting point, listed per entry for reference.
Entry rule: numbers only, all in °C.

Examples from the recorded data:
compound: CC(C)(C)NCC(O)COc1ccccc1C1CCCC1 (configuration not stated)
melting point [°C]: 68
//
compound: Cc1cnc2ccccc2c1C
melting point [°C]: 73.5

Lookup: Query melting point for `C=C(C)C(=O)OCCN(C)C`
Found: -30

Lookup: Query melting point for `COc1cc(C)c(S(=O)(=O)Cl)c(C)c1C`
Found: 58

Lookup: Query melting point for `Clc1ccc(C(Cl)Cl)c(Cl)c1Cl`
Found: 84

Lookup: Query melting point for `COS(=O)(=O)Cl`
Found: -70

* * *

Measured melting point, listed per entry for reference.
Entry rule: numbers only, all in °C.

compound: CC(C)C1=CC2=CCC3C(C)(C(=O)O)CCCC3(C)C2CC1 (stereo unspecified)
output-unit: °C
value-reported: 174

compound: N#Cc1ccnc2ccccc12
output-unit: °C
value-reported: 104

compound: COc1ccccc1/C=C(\C#N)c1nc2ccccc2n1C
output-unit: °C
value-reported: 226

compound: Nc1ccccc1-c1ccccc1N
output-unit: °C
value-reported: 81

compound: OC1NN(c2ccccc2)C(O)C1=Cc1ccc2c(c1)OCO2 (stereo unspecified)
output-unit: °C
value-reported: 290

Now, please, on to the next compound.
Lookup: Query melting point for `CC(=O)O[Si](OC(C)=O)(OC(C)=O)OC(C)=O`
Found: 110

* * *

Measured melting point, listed per entry for reference.
Entry rule: numbers only, all in °C.

compound: CCCCNC(=O)C(C(F)(F)F)C(F)(F)F
melting point (°C): 94
//
compound: CCCOCOCCC
melting point (°C): -97.3
//
compound: O=C(c1ccccc1)c1ccc2n1CCC2C(=O)O (stereo unspecified)
melting point (°C): 160
//
compound: O=C1c2ccccc2C(=O)N1SC(Cl)(Cl)Cl
melting point (°C): 178
//
compound: CN(C)C(C)(C)C
melting point (°C): -90

Lookup: Query melting point for `O=S(=O)(O)CCCNC1CCCCC1`
Found: 324

Lookup: Query melting point for `Cc1ccc(CCc2ccc(C)cc2)cc1`
Found: 85

Lookup: Query melting point for CC(=O)SCC(Cc1ccccc1)C(=O)NCC(=O)OCc1ccccc1 (stereo unspecified)
Found: 89

Lookup: Query melting point for `c1ccc(Sc2ccccc2)cc1`
Found: -40

* * *

Binary call on melting point: True from 200 °C upward, False beneath that.

Example cases with answers are listed next.
molecule: Cc1ccnc(Cl)n1
group: False
--
molecule: N#CC#CC#N
group: False
--
molecule: CC12C=CC(=O)C=C1C(F)CC1C2C(O)CC2(C)C1CCC2(O)C(=O)CO (stereo unspecified)
group: True

Lookup: Quick check: does `O=C1C(=Cc2ccccc2)N=C(N2CCOCC2)N1c1ccccc1` have melting point greater than or equal to 200 °C?
Found: True

Lookup: Quick check: does Oc1ccc2c(c1)C13CCCCC1C(C2)NCC3 (stereo unspecified) have melting point greater than or equal to 200 °C?
Found: True

* * *

Kindly note that classification relies on melting point with these boundaries: group 1 (below 70 °C), group 2 (70 °C to below 200 °C), group 3 (200 °C or more)

Example cases with answers are listed next.
compound: C=Cc1ccc(C)cc1
group: group 1
//
compound: O=C(O)C(Cc1cc(I)c(O)c(I)c1)c1ccccc1 (stereo not given)
group: group 2
//
compound: N#Cc1ccc(C=Cc2ccccc2C=O)c([N+](=O)[O-])c1
group: group 3

Lookup: Category of `Cc1onc(-c2ccccc2Cl)c1C(=O)O` :
Found: group 2

Lookup: Category of `O=S(=O)(Nc1cc(F)c(F)cc1F)C(F)(F)F` :
Found: group 1

Lookup: Category of `CCN(CC)C(=O)COC(=O)c1ccccc1` :
Found: group 2

Lookup: Category of `Cc1cc(C(N)=O)ccc1Br` :
Found: group 2

Lookup: Category of `Cc1cc(C)c(N=C=O)c(C)c1` :
Found: group 1

Lookup: Category of `O=C(Nc1ccc(Cl)cc1)Nc1ccc(Cl)c(Cl)c1` :
Found: group 3

Lookup: Category of `O=[N+]([O-])c1cc(Cl)cc(Cl)c1O` :
Found: group 2

Lookup: Category of CC(C)C(O)C1(C)CCC(C(=O)O)C(C)(C)O1 (stereo not given) :
Found: group 2
